Values compiled from the supplement of paper PMC9233669.

# Tested on: biotinyl-Met-oxazolone
# procedure text: self-aminoacylation, catalytic enhancement (BMO) (fold over background); higher = more active; k-Seq, kA / k0A0; sequences stand for … in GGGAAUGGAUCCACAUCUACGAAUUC…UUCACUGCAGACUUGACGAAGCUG
This sample holds only a part of the variants without activity.
Rule: Criterion met for self-aminoacylation not less than 3, Criterion not met for anything less.

(Q) Kindly determine if self-aminoacylation recorded for CUACUUCAAACACUCGUUCUG [Fam1A.1 aminoacylation ribozyme variant] is above or exactly 3.
(A) Criterion not met

(Q) Please do the same for AUUGACCUAGGUCAUCGGGCG [Fam2.2 aminoacylation ribozyme variant] as well.
(A) Criterion met

(Q) Subsequent entry: CCACACGUCAAGCGAUCGGUC [Fam1B.1 aminoacylation ribozyme variant]
(A) Criterion not met

(Q) And the next one, AUUCAACAAGGUCAUCGGGUG [Fam2.2 aminoacylation ribozyme variant] ?
(A) Criterion met

(Q) One more sequence: AAGUUCGCUAAUAGUAGCAAG [Fam3.1 aminoacylation ribozyme variant]
(A) Criterion not met

(Q) Entry AUUACCCUGGUCAGCGAGUGA [Fam2.1 aminoacylation ribozyme variant] please
(A) Criterion met

(Q) Also, CAACACUUUAAGCAAUCGGUC [Fam1B.1 aminoacylation ribozyme variant] please.
(A) Criterion not met

(Q) Next up: AAUACCCUGGUCAUCGAGCGA [Fam2.1 aminoacylation ribozyme variant]
(A) Criterion not met

(Q) Now this one: AUUACCCUGGUUAUCGAGGGA [Fam2.1 aminoacylation ribozyme variant]
(A) Criterion not met

(Q) Cool, now AUUGCCCUGGUCAUCCAGUGA [Fam2.1 aminoacylation ribozyme variant]
(A) Criterion met

(Q) // query: AUUACCGUGGUCACCGAGUGA [Fam2.1 aminoacylation ribozyme variant]
(A) Criterion met

(Q) Then ACUACCCUGAUCAUCGAGUGA [Fam2.1 aminoacylation ribozyme variant] ?
(A) Criterion met

(Q) Could you do the same for AUUACCCUGGUCAGCGAGUGG [Fam2.1 aminoacylation ribozyme variant] , please?
(A) Criterion not met

(Q) Okay, and AUUCAUCUAGGUCAUCGGGUG [Fam2.2 aminoacylation ribozyme variant] ?
(A) Criterion met

(Q) Moving on to the next sequence: AUUUCCCUGGUCAUCGAGUAA [Fam2.1 aminoacylation ribozyme variant]
(A) Criterion not met

(Q) Field entry: CUACUUCAAACAAUCGUUCAG [Fam1A.1 aminoacylation ribozyme variant]
(A) Criterion not met

(Q) Queued: AAGUUUGCUAAUAUUGGCAAG [Fam3.1 aminoacylation ribozyme variant]
(A) Criterion not met
